- Test system: SK-MEL-5
- ASSAY SUMMARY: NCI tumour cell line growth inhibition, 48 h
Active and inactive are the calls of the source. Rule as the data show it: active = GI50 up to about 1.1 µM and inactive = higher.
Your response should consist of one outcome taken from 1 (active), -1 (inactive)

Use the examples below as a reference point.
Cc1ccc(S(=O)(=O)n2cncc2CO)cc1; -1
O=C(Nc1cccc2ccccc12)Nn1cnnc1; -1
O=C(CCCn1ccnc1[N+](=O)[O-])NCCn1cnc([N+](=O)[O-])c1; -1

Dear all, I need the recorded test outcome for "CC(=O)N(C(C)=O)n1nc2c(n1)C(=O)c1ccccc1C2=O" , thank you.
-1

Dear all, I need the recorded test outcome for "O=C(O)[C@H](NS(=O)(=O)c1ccc([N+](=O)[O-])cc1)c1ccccc1" , thank you.
-1

Dear all, I need the recorded test outcome for c1ccc(N2N=NC3C4CC(C5c6ccccc6C45)C32)cc1 (stereo unspecified) , thank you.
-1

Dear all, I need the recorded test outcome for "COc1cc(OC)c2nc(C)c3c(c2c1)SCC3" , thank you.
-1

Dear all, I need the recorded test outcome for "CCCCCCCCC(=O)NCCN(CCN)C(=O)CCCCCCCC" , thank you.
-1

Dear all, I need the recorded test outcome for "CCOC(=O)c1nc2c(nc1C(=O)OCC)C(=O)c1ccccc1C2=O" , thank you.
1

Dear all, I need the recorded test outcome for "CN(C)c1ccc(/C=C/C(=O)N[C@@H]2C(=O)N3[C@@H]2SC(C)(C)[C@@H]3C(=O)O)cc1" , thank you.
-1

Dear all, I need the recorded test outcome for CCOc1ccccc1/N=N/C1C(=O)N(C(=O)CC(=O)Nc2ccccc2C)N=C1C (stereo unspecified) , thank you.
-1

###

- Test system: M14
- ASSAY SUMMARY: NCI tumour cell line growth inhibition, 48 h
Calls of active or inactive are those of the source. No stated cut-off is given here; in the data, active = GI50 up to about 1.1 µM and inactive = higher.
Your response should consist of one outcome taken from active, inactive

Use the examples below as a reference point.
Cc1ccc2nc(NC(=O)/C(=N\NC(=S)NN)C3C(=O)NC(=S)NC3=O)sc2c1; inactive
COC(=O)[C@@]1(C)/C(=N/NS(=O)(=O)c2ccc(C)cc2)CCC[C@@H]1C; inactive
CN(NC(=O)c1cccs1)C1=NCCCN1; inactive
O=C1C[C@H](c2ccccc2)O[C@@H](c2ccccc2)C1; inactive
O=c1c2ccccc2[nH]n1Cc1ccccc1; inactive
c1ccc(N2N=NC3C4CC(C5c6ccccc6C45)C32)cc1 (stereo not drawn); inactive
CC(C)(C)OC(=O)NCC(=O)OCc1ccccc1; inactive
Cc1ccccc1NC(=O)NC(Oc1ccccc1)(C(F)(F)F)C(F)(F)F; inactive
O[C@H]1[C@H](O)[C@@H](Cn2nnc(-c3ccccc3)c2-c2ccccc2)OCO[C@@H]1Cn1nnc(-c2ccccc2)c1-c1ccccc1; inactive
O=C(O)/C(=C\c1ccncc1)c1cccc2ccccc12; inactive

Dear all, I need the recorded test outcome for "CCCCCCCCCCCC1=NCCN1" , thank you.
inactive

Dear all, I need the recorded test outcome for NC1=NCN(C2OC(CO)C(O)C2O)C(=O)N1 (stereo not drawn) , thank you.
inactive

Dear all, I need the recorded test outcome for "O=C1C(c2ccc([N+](=O)[O-])cc2)=[N+]([O-])c2ccc([N+](=O)[O-])cc21" , thank you.
inactive

Dear all, I need the recorded test outcome for "COc1cc(CCC(=O)O)c2cc3ccccc3cc2c1O" , thank you.
inactive

Dear all, I need the recorded test outcome for "CCCc1nc(N)nc(C(=O)Nc2cccc(C(F)(F)F)c2)c1CC" , thank you.
inactive

###

- Tested on: RXF 393
- ASSAY SUMMARY: NCI tumour cell line growth inhibition, 48 h
Calls of active or inactive are those of the source. No stated cut-off is given here; in the data, active = GI50 up to about 1.1 µM and inactive = higher.
Your response should consist of one outcome taken from TRUE (active), FALSE (inactive)

O=C(O)/C(=C\c1ccncc1)c1cccc2ccccc12; FALSE

Dear all, I need the recorded test outcome for "CN1CCN(C(=S)N(C(=O)c2ccc(Cl)cc2)c2ccccc2)CC1" , thank you.
FALSE

Dear all, I need the recorded test outcome for COc1cc2c(cc1O)CCN[C@@]21CS[C@H]2c3c(OC(C)=O)c(C)c4c(c3C(COC1=O)N1C2C2NC(Cc3cc(C)c(OC)c(O)c32)[C@@H]1C#N)OCO4 (stereo partly specified) , thank you.
TRUE

Dear all, I need the recorded test outcome for c1ccc(N2N=NC3C4CC(C5c6ccccc6C45)C32)cc1 (stereo unspecified) , thank you.
FALSE

###

- Test system: OVCAR-3
- ASSAY SUMMARY: NCI tumour cell line growth inhibition, 48 h
Active and inactive are the calls of the source. Rule as the data show it: active = GI50 up to about 1.1 µM and inactive = higher.
# maps each entry to its GI50

These solved cases illustrate the format of a correct answer.
CC(=O)Nc1ccc(C(=O)N2N=C(C)/C(=C/c3ccccc3O)C2=O)cc1; > 100 µM (inactive)
Clc1sc(Cl)c2c1[C@@H](Cl)C[C@@H]2Cl; > 100 µM (inactive)
CC(C)(Br)C1(O)CCCN1C(=O)c1ccccc1 (centres undefined); > 100 µM (inactive)
O=c1[nH]c(=O)n(C/C=C/CBr)nc1Br; 11.6 µM (inactive)
COc1cc(C(Cc2ccccc2)NC(C)=O)oc(=O)c1 (centres undefined); > 100 µM (inactive)
Cc1c(C(=O)/C=C/c2ccc([N+](=O)[O-])cc2)[n+]([O-])c2ccccc2[n+]1[O-]; 95.7 µM (inactive)

// sample "O=c1[nH]n2c(=O)cc[nH]c2c1-c1nnns1" , its GI50 was > 100 µM (inactive)

// sample CC(C)(C)OC(=O)NC1CCCC1=O (centres undefined) , its GI50 was > 100 µM (inactive)

// sample CC(=O)OC(CN1CCN(c2ccccn2)CC1)Cn1sc2nc(C)cc(C)c2c1=O (centres undefined) , its GI50 was 21.2 µM (inactive)

###

- Test system: SF-295
- ASSAY SUMMARY: NCI tumour cell line growth inhibition, 48 h
Activity calls are given as the source filed them. Rule as the data show it: active = GI50 up to about 1.1 µM and inactive = higher.
# maps each entry to its GI50

These solved cases illustrate the format of a correct answer.
NCCCCNc1ccc2c(=O)[nH][nH]c(=O)c2c1; > 100 µM (inactive)
CCOC(=O)c1[nH]cc(C)c1-c1ccc2c(-c3ccccc3)nc3ccccc3n12; 3.52 µM (inactive)
COC(=O)c1ccccc1C1CN=NC12Cc1cc(C)c(C)cc1C2=O (stereo unspecified); 37.5 µM (inactive)
COc1ccc(-c2nc3ncccn3c2-c2ccc(S(C)(=O)=O)cc2)cc1; > 100 µM (inactive)
Cc1ccc(O)c(C2=CC3=NNC(=O)C3C(c3cccc(Br)c3)C2)c1 (stereo unspecified); 18.8 µM (inactive)
NC(Cc1ccccc1)c1nccs1 (stereo unspecified); > 100 µM (inactive)
O=C(Nc1cccc(C(=O)NCCCO)c1)/C(=C/c1ccccc1)NC(=O)c1ccccc1; > 100 µM (inactive)
Brc1cccc(Nc2ncnc3sc4c(c23)CCC(Nc2cccc(Br)c2)C4)c1 (stereo unspecified); > 100 µM (inactive)
COCCc1c(C)c(C#N)c2n(C)c3ccccc3n2c1=O; > 10 µM (inactive)
CCOC(=O)NC(OC)(C(F)(F)F)C(F)(F)F; > 100 µM (inactive)

// sample "CC(C)(C)OC(=O)NCC(=O)OCc1ccccc1" , its GI50 was > 100 µM (inactive)

// sample "C=CC[C@@]1(C#N)C[C@H](C[C@]2(C#N)C[C@H](CCl)OC(C)(C)O2)OC(C)(C)O1" , its GI50 was > 100 µM (inactive)

// sample COc1ccc2c(c1)CC[C@@H]1C2CC[C@]2(C)C(=O)N(N)C(=O)CC12 (stereo partly specified) , its GI50 was > 100 µM (inactive)

// sample "C/C(=N/NS(=O)(=O)c1ccc([N+](=O)[O-])cc1)c1cccc[n+]1[O-]" , its GI50 was > 100 µM (inactive)

// sample "COC(=O)Nc1nc2cc(NS(=O)(=O)c3ccc(Cl)cc3)ccc2[nH]1" , its GI50 was 4.45 µM (inactive)

// sample "Clc1ccc2c(NCCCCCCNc3ccnc4cc(Cl)ccc34)ccnc2c1" , its GI50 was 2.11 µM (inactive)

// sample N=C(N)Nc1ccc(CC(N)C(=O)NCC(=O)C(CC(=O)O)c2ncc(NC(=O)C(F)(F)F)o2)cc1 (stereo unspecified) , its GI50 was > 25 µM (inactive)

// sample "CC(=O)N(C)c1ccc(/N=C/N(C)C)cc1" , its GI50 was > 100 µM (inactive)

// sample CC1(C=O)CC(CCc2ccccc2)NC1Cc1ccc(O)cc1 (stereo unspecified) , its GI50 was 17.7 µM (inactive)

// sample O=C(NC(CO)Cc1ccc(Oc2cc(CC(CO)NC(=O)OCc3ccccc3)ccc2OC(=O)OCc2ccccc2)cc1)OCc1ccccc1 (stereo unspecified) , its GI50 was 15.9 µM (inactive)

// sample "COc1cc2nc(-c3cccs3)nc(N3C(c4ccc(O)cc4)=NNC(=O)c4ccccc43)c2cc1OC" , its GI50 was 19.5 µM (inactive)

###

# maps each entry to its GI50
- System: MCF7
- ASSAY SUMMARY: NCI tumour cell line growth inhibition, 48 h
Calls of active or inactive are those of the source. Rule as the data show it: active = GI50 up to about 1.1 µM and inactive = higher.

// sample "CCCCCCCCCCCC1=NCCN1" , its GI50 was 38.9 µM (inactive)

// sample COC1(C)CP(=O)(OC(C)C)CC(C)=C1Cl (stereo unspecified) , its GI50 was 4.67 µM (inactive)

// sample CC(=O)CC1=C(OC(C)C)C2(OCCO2)C1O (stereo unspecified) , its GI50 was > 100 µM (inactive)

// sample "CCOC(=O)NC(OC)(C(F)(F)F)C(F)(F)F" , its GI50 was > 100 µM (inactive)

// sample "CCN(CC)CCOc1ccc(N2Cc3ccccc3C2=O)cc1" , its GI50 was > 10 µM (inactive)

// sample "Cn1c(-c2ccc(-c3cc(-c4cccs4)c(-c4cccs4)n3C)cc2)cc(-c2cccs2)c1-c1cccs1" , its GI50 was > 100 µM (inactive)
